The values you see were collected from paper PMC8745342.

targetSystem: Acetylcholinesterase human (AChE) (Homo sapiens)
Construct: purchased Sigma-Aldrich (Poznań, Poland)
Sequence (P22303 32-614): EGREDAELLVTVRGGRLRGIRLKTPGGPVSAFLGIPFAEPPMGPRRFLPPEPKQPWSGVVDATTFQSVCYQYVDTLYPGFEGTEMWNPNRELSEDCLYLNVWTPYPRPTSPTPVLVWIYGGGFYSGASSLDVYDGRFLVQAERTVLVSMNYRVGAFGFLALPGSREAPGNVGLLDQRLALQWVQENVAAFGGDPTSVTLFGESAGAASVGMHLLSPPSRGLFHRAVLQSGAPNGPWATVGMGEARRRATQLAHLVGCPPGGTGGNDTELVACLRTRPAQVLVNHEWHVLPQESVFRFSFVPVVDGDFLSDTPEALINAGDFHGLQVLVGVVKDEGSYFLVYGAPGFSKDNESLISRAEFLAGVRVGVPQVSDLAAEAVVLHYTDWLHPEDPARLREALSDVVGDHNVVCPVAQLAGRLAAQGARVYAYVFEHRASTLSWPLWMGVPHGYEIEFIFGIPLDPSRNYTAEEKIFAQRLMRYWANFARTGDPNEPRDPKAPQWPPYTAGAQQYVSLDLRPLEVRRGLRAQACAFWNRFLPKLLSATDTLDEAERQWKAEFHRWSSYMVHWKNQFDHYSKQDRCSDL
methodSummary: AChE inhibition kinetics, Ellman's method combined with capillary electrophoresis
Assay type: biochemical
details: inhibitor 0.08 mM; acetylthiocholine 2.88 mM
recordedEndpoint: V0 (reaction speed), mean (mM/min)
Provide the reading as a plain figure in mM/min.

Consider the molecule shown here: CCC12C(=O)C(CC)(C(c3ccccc3)=C1c1ccccc1)C1C(=O)N(CC(O)CNC(C)C)C(=O)C12 (stereo not shown) [Compound (I)] What is its recorded V0 (reaction speed), mean?
0.43

// lookup V0 (reaction speed), mean for CC(C)NCC(O)CN1C(=O)C2C(C1=O)C1(C)C(=O)C2(C)C(c2ccccc2)=C1c1ccccc1 (stereo not shown) [Compound (III)]
0.42

Look up V0 (reaction speed), mean for this molecule: CCC12C(=O)C(CC)(C(c3ccccc3)=C1c1ccccc1)C1C(=O)N(CC(O)CN(C)C)C(=O)C12 (stereo not shown) [Compound (II)]
0.43

Query molecule follows.
// query V0 (reaction speed), mean value for entry CN(C)CC(O)CN1C(=O)C2C(C1=O)C1(C)C(=O)C2(C)C(c2ccccc2)=C1c1ccccc1 (stereo not shown) [Compound (IV)]
0.43
